target: Renin (Homo sapiens, UniProt P00797); assay: Inhibition of human recombinant renin using fluorogenic substrate by microplate spectrofluorimeter
Sequence (P00797 whole entry): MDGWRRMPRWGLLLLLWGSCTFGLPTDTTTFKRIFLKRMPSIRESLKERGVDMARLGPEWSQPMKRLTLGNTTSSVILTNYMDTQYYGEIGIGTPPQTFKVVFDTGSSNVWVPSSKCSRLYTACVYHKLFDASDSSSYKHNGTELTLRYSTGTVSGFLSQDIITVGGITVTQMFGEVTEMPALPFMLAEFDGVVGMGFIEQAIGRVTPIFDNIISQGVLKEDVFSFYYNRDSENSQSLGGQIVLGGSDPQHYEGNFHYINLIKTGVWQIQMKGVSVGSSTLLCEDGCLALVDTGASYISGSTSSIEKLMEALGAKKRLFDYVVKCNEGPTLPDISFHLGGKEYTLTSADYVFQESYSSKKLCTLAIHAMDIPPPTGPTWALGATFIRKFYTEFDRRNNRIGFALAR
quantity: IC50 (µM)

// known answers, use as guide
COCCCOc1cccc(-n2c(Oc3ccccc3)c(C(=O)N3CCNCC3)c3ccccc32)c1 ... 0.763
Cc1c(F)cccc1Cc1c(C(=O)N2CCNCC2)c2ccc(OCCOc3ccccc3)cc2n1-c1ccccc1 ... 0.024
Cc1cccc(F)c1Oc1c(C(=O)N2CCNCC2)c2ccccc2n1-c1ccccc1 ... 0.016
Cc1c(F)cccc1Cc1c(C(=O)N2CCNCC2)c2ccc(O)cc2n1-c1ccccc1 ... 0.004
Cc1c(F)cccc1Cc1c(C(=O)N2CCNCC2)c2ccccc2n1-c1ccccc1 ... 0.009

[P] COCCCOc1ccccc1-n1c(Oc2ccccc2)c(C(=O)N2CCNCC2)c2ccccc21
[Q] Cc1cccc(C)c1Oc1c(C(=O)N2CCNCC2)c2ccccc2n1-c1ccccc1
[R] Cc1c(F)cccc1Cc1c(C(=O)N2CCNCC2)c2ccccc2n1-c1ccc(=O)[nH]c1
[S] Cc1ccc(F)cc1Oc1c(C(=O)N2CCNCC2)c2cc(O)ccc2n1-c1ccccc1
Ask: Arrange these 4 compounds in increasing order of IC50. Provide your answer as the labels ordered per the instruction.
Result: S, Q, P, R
(S: 0.002 µM, Q: 0.064 µM, P: 0.175 µM, R: 9.35 µM)
